All figures here come from the Deep4Chem optical property database.

assay: solvent given as SMILES; details: in c1ccc2c(c1)c1ccccc1n2-c1ccc(-c2ccc(-n3c4ccccc4c4ccccc43)cc2)cc1
RECORDED ENDPOINT: fluorescence lifetime (ns)
Give a bare numeral; the unit ns is implied.

Name the reported fluorescence lifetime value associated with the molecule O=C1c2ccc(-c3ccc(N(c4ccccc4)c4ccccc4)cc3)cc2C(=O)c2ccc(-c3ccc(N(c4ccccc4)c4ccccc4)cc3)cc21 10.2

Name the reported fluorescence lifetime value associated with the molecule O=C(c1ccc(N2c3ccccc3Sc3ccccc32)cc1)c1ccc2sc3ccccc3c2c1 37.4

Name the reported fluorescence lifetime value associated with the molecule CC1(C)c2ccccc2N(c2ccc(C(=O)c3cc(C(=O)c4ccc(N5c6ccccc6C(C)(C)c6ccccc65)cc4)cc(C(=O)c4ccc(N5c6ccccc6C(C)(C)c6ccccc65)cc4)c3)cc2)c2ccccc21 25.8

Name the reported fluorescence lifetime value associated with the molecule COc1ccc2c(c1)c1cc(OC)ccc1n2-c1ccc2c(c1)-c1cc(-n3c4ccc(OC)cc4c4cc(OC)ccc43)ccc1P2(=O)c1ccccc1 16.7

Name the reported fluorescence lifetime value associated with the molecule O=P1(c2ccccc2)c2cc(N3c4ccccc4Oc4ccccc43)ccc2-c2ccc(N3c4ccccc4Oc4ccccc43)cc21 23.7

Name the reported fluorescence lifetime value associated with the molecule O=P1(c2ccccc2)c2ccc(N3c4ccccc4Oc4ccccc43)cc2-c2cc(N3c4ccccc4Oc4ccccc43)ccc21 35.1

Name the reported fluorescence lifetime value associated with the molecule CC1(C)c2ccccc2N(c2ccccc2)c2ccc(-c3ccc(-c4ccc5c(c4)C(C)(C)c4ccccc4N5c4ccccc4)c4nsnc34)cc21 7.2

Name the reported fluorescence lifetime value associated with the molecule c1ccc2c(c1)c1ccccc1n2-c1ccc2cc(-c3ccc(-c4ccc(-c5cc6ccc(-n7c8ccccc8c8ccccc87)cc6o5)cc4)cc3)oc2c1 1.5

* * *

assay: solvent given as SMILES; settings: in ClCCl
Rule: fluorescence lifetime below 4 ns gives class 1. Equal to or above 4 ns gives class 0.

Quick check: fluorescence lifetime of COc1ccc(-c2cc3c(s2)c(C(=O)c2ccccc2)cc(=O)n3Cc2ccccc2)cc1 under 4 ns? class 0

Quick check: fluorescence lifetime of COc1ccc(N(c2ccc(OC)cc2)c2cc3ccc4cc(B(c5c(C)cc(C)cc5C)c5c(C)cc(C)cc5C)cc5ccc(c2)c3c45)cc1 under 4 ns? class 0

Quick check: fluorescence lifetime of COC(=O)c1[nH]c(-c2ccc(OC)cc2)c2nnc3ccc(OC)cc3c12 under 4 ns? class 0

Quick check: fluorescence lifetime of COc1c2ccccc2c(OC)c2c1c1cc(Cl)ccc1n2C under 4 ns? class 0

Quick check: fluorescence lifetime of F[B-]1(F)n2c(c3cccc4cccc2c43)=Nc2ccc3ccccc3[n+]21 under 4 ns? class 0

Quick check: fluorescence lifetime of COc1ccc2cc(C#N)c(=N)oc2c1 under 4 ns? class 1

Quick check: fluorescence lifetime of C(#Cc1ccc2c(c1)c1cc(C#Cc3ccccc3)ccc1n2-c1cc2ccccc2c2ccccc12)c1ccccc1 under 4 ns? class 0

Quick check: fluorescence lifetime of CCN(CC)c1ccc2c(c1)oc(=O)c1cnc3c(c(C)nn3-c3ccccc3)c12 under 4 ns? class 1

Quick check: fluorescence lifetime of N#Cc1cnc(-c2c3ccccc3cc3ccccc23)nc1 under 4 ns? class 1

Quick check: fluorescence lifetime of Cc1ccc(/C2=C3N=C(C(c4ccccc4)=C/3c3ccccc3)/C(c3ccc(C)cc3)=c3\[nH]/c(c(-c4ccccc4)c3-c3ccccc3)=C(/c3ccc(C)cc3)C3=N/C(=C(/c4ccc(C)cc4)c4[nH]c2c(-c2ccccc2)c4-c2ccccc2)C(c2ccccc2)=C3c2ccccc2)cc1 under 4 ns? class 1

Quick check: fluorescence lifetime of CC(C)c1ccc2ccc3cccc4ccc1c2c34 under 4 ns? class 0

Quick check: fluorescence lifetime of O=C1NC(=O)c2ccc(N3CCCCC3)c3cccc1c23 under 4 ns? class 0

Quick check: fluorescence lifetime of C=CCOc1nnc(OCCC(F)(F)C(F)(F)C(F)(F)C(F)(F)C(F)(F)C(F)(F)C(F)(F)C(F)(F)F)nn1 under 4 ns? class 0

Quick check: fluorescence lifetime of Cc1cc(-c2ccccc2C)cc(C)[o+]1 under 4 ns? class 0

Quick check: fluorescence lifetime of CN(C)c1ccc(C2=Cc3cc(Cl)nc[n+]3[B-](F)(F)O2)cc1 under 4 ns? class 1

Quick check: fluorescence lifetime of c1ccc(N(c2ccccc2)c2ccc(-c3ccc(-c4cc(-c5ccccn5)nc(-c5ccccn5)c4)cc3)cc2)cc1 under 4 ns? class 1

Quick check: fluorescence lifetime of CCN(CC)c1ccc2c(-c3ccccc3C(=O)O)c3c([o+]c2c1)/C(=C/c1nc(-c2ccccc2)n2ccccc12)CCC3 under 4 ns? class 1

Quick check: fluorescence lifetime of CCN(CC)c1ccc2c(c1)oc(=O)c1c(C)nc3c(c(-c4ccccc4)nn3C)c12 under 4 ns? class 0

Quick check: fluorescence lifetime of CC1=C(c2ccccc2)C(C)=[N+]2C1=C(c1c(-c3ccccn3)nc3ccccn13)c1c(C)c(-c3ccccc3)c(C)n1[B-]2(F)F under 4 ns? class 1

Quick check: fluorescence lifetime of Cn1c(=O)cc(C(=O)c2ccccc2)c2sc(-c3ccc(N(c4ccccc4)c4ccccc4)cc3)cc21 under 4 ns? class 1

Quick check: fluorescence lifetime of CCC(=O)c1ccc2cc(N(C)C)ccc2c1 under 4 ns? class 1

Quick check: fluorescence lifetime of COCCOCCOCCOCC(COCCOCCOCCOC)Oc1cc(/C=C/c2ccc(/C=C(\C#N)C(=O)c3ccccc3)cc2)c(OC(COCCOCCOCCOC)COCCOCCOCCOC)cc1/C=C/c1ccc(/C=C(\C#N)C(=O)c2ccccc2)cc1 under 4 ns? class 1

Quick check: fluorescence lifetime of FC(F)(F)C(F)(F)C(F)(F)C(F)(F)C(F)(F)C(F)(F)CCOc1nnc(Cl)nn1 under 4 ns? class 0

Quick check: fluorescence lifetime of c1ccc(-c2cc(-c3ccc(-c4nc(-c5ccccn5)c(-c5ccccn5)[nH]4)cc3)cc(-c3ccccn3)n2)nc1 under 4 ns? class 1

Quick check: fluorescence lifetime of CCCCC(CC)COc1ccc2nc(-c3ccc(-c4ccccc4)s3)sc2c1 (stereo not drawn) under 4 ns? class 1

Quick check: fluorescence lifetime of CCN(CC)c1ccc2cc(/C(Cl)=C/C=C/C(=C(C#N)C#N)c3ccc(N(c4ccccc4)c4ccccc4)cc3)c(=O)oc2c1 under 4 ns? class 1

Quick check: fluorescence lifetime of CCN(CC)c1ccc2nc3c4ccccc4c(=O)cc-3oc2c1 under 4 ns? class 0

* * *

assay: solvent given as SMILES; details: in ClCCl
Field: fluorescence lifetime. Provide a value for each of the compounds that follow.
Give a bare numeral; the unit ns is implied.

Name the reported fluorescence lifetime value associated with the compound CCCCCCCCCCn1nnc(-c2ccc(C#Cc3ccc(C#Cc4ccc(-c5nnn(CCCCCCCCCC)n5)cc4)c4nc5c6ccccc6c6ccccc6c5nc34)cc2)n1 4.8

Name the reported fluorescence lifetime value associated with the compound CCCCOc1ccc(-c2cc3c(o2)c(-c2ccc(OCCCC)cc2)c2n3[B-](F)(F)[N+]3=Cc4c(-c5ccc(OCCCC)cc5)c5oc(-c6ccc(OCCCC)cc6)cc5n4[B-](F)(F)[N+]3=C2)cc1 2.59

Name the reported fluorescence lifetime value associated with the compound CC(C)[Si]1(C(C)C)c2cc(N(C)C)ccc2-c2ccc(C(F)(F)F)cc21 2.5

Name the reported fluorescence lifetime value associated with the compound CCCCN1/C(=C\c2c(-c3ccc(N(C)C)cc3)c(=O)c2=O)C=Cc2ccccc21 0.6

* * *

assay: solvent given as SMILES; conditions: in CC(C)=O
Rule: fluorescence lifetime below 1 ns gives Fulfilled. Equal to or above 1 ns gives Not fulfilled.

Quick check: fluorescence lifetime of C(=C\c1nc2ccccc2[nH]1)/c1ccc(/C=C/c2nc3ccccc3[nH]2)cc1 under 1 ns? Not fulfilled

Quick check: fluorescence lifetime of CN(C)c1ccc(/C=C/c2ccc(-c3ccc(/C=C/c4ccc(N(C)C)cc4)s3)s2)cc1 under 1 ns? Not fulfilled

Quick check: fluorescence lifetime of CCC1=C(C)C2=Cc3cc(I)c(I)n3[B-](F)(F)[N+]2=C1C under 1 ns? Fulfilled

Quick check: fluorescence lifetime of c1ccc(-c2cc(-c3ccc(-c4nc(-c5ccccn5)c(-c5ccccn5)[nH]4)cc3)cc(-c3ccccn3)n2)nc1 under 1 ns? Not fulfilled

Quick check: fluorescence lifetime of CN1CCN(c2ccc3c4c(cccc24)C(=O)c2ccccc2-3)CC1 under 1 ns? Not fulfilled

Quick check: fluorescence lifetime of COc1cc2c(cc1-c1ccccc1)Cc1c3c(c4c(c1-2)-c1cc(OC)c(-c2ccccc2)cc1C4)C(=O)N(CCC(C)C)C3=O under 1 ns? Not fulfilled

Quick check: fluorescence lifetime of COC(=O)c1ccc(C#Cc2ccc(N(C)C)cc2)cc1 under 1 ns? Not fulfilled

Quick check: fluorescence lifetime of CC1(C)C(/C=C/C=C/C=C/C=C2/N(CCCCS(=O)(=O)[O-])c3ccc4ccccc4c3C2(C)C)=[N+](CCCCS(=O)(=O)[O-])c2ccc3ccccc3c21 under 1 ns? Fulfilled

* * *

experiment: solvent given as SMILES; conditions: in CC1CCCCC1
Field: fluorescence lifetime. Provide a value for each of the molecules that follow.
Give a bare numeral; the unit ns is implied.

Name the reported fluorescence lifetime value associated with the molecule C(=C\c1c2ccccc2cc2ccccc12)/c1cccc2ccccc12 5

Name the reported fluorescence lifetime value associated with the molecule COC(=O)C(NC(=O)OC(C)(C)C)c1ccc2oc(-c3cc(OC)ccc3OC)nc2c1 (stereo unspecified) 1.93

Name the reported fluorescence lifetime value associated with the molecule C(=C\c1c2ccccc2cc2ccccc12)/c1ccccc1 3.6

Name the reported fluorescence lifetime value associated with the molecule C(=C\c1c2ccccc2cc2ccccc12)/c1ccc2ccccc2c1 3.3

Name the reported fluorescence lifetime value associated with the molecule COC(=O)C(NC(=O)OC(C)(C)C)c1ccc2oc(-c3ccc(O)cc3O)nc2c1 (stereo unspecified) 0.3

Name the reported fluorescence lifetime value associated with the molecule CC(C)(C)OC(=O)NC(Cc1ccc2oc(-c3ccccn3)nc2c1)C(=O)O (stereo unspecified) 2.9
